# System: Fusarium oxysporum
# Assay Method Text: Antifungal activity against Fusarium oxysporum at 75 ug/ml after 48 hrs by agar well diffusion method
# Format: functional
# Test Parameters: read-out: DIZ
Provide the recorded zone of inhibition at 75 µg/mL for the entries that follow.
Numbers only, in mm.

Example entries begin here.
{"columns": ["Compound", "Property Measured", "Assay Value"],
 "data": [
  ["Cc1cccc2nc(N/N=C/c3cccs3)sc12", "zone of inhibition at 75 µg/mL", 29],
  ["Cc1cccc2nc(N/N=C/c3ccc(Br)cc3)sc12", "zone of inhibition at 75 µg/mL", 23],
  ["CC(=O)N1CCN(c2ccc(OCC3COC(Cn4ccnc4)(c4ccc(Cl)cc4Cl)O3)cc2)CC1 (stereo not given)", "zone of inhibition at 75 µg/mL", 32],
  ["Cc1cccc2nc(N/N=C/c3ccccc3)sc12", "zone of inhibition at 75 µg/mL", 13]
]}

Would you be so kind as to report zone of inhibition at 75 µg/mL for each listed record?
1. COc1cc(/C=N/Nc2nc3cccc(C)c3s2)ccc1OCc1ccccc1
2. Cc1cccc2nc(N/N=C/c3ccco3)sc12
3. Cc1cccc2nc(N/N=C/c3cc(O)c(O)c(O)c3)sc12
4. Cc1cccc2nc(N/N=C/c3ccc([N+](=O)[O-])cc3)sc12
5. COc1cc(/C=N/Nc2nc3cccc(C)c3s2)cc(OC)c1OC

## Output
1. 9
2. 14
3. 27
4. 14
5. 17

## Input # query: zone of inhibition at 75 µg/mL | item `Cc1cccc2nc(N/N=C/c3ccc(F)cc3)sc12` | system: Fusarium oxysporum
## Output 18
